# Target: 5-hydroxytryptamine receptor 4 (Homo sapiens)
# Procedure text: Displacement of [3H]GR-113808 from human 5HT4 isoform E receptor expressed in rat C6 cells at 10 nM by liquid scintillation counting
# Assay type: cell-based
Readout label: Activity (%)
Numbers only; they are read as %.

// solved cases for Activity follow
Given smiles: COc1cc(N)c(Cl)cc1C(=O)OCCN1CCC(CNC(=O)CC(C)(C)C)CC1
Unit text: %
Activity: 10

Given smiles: COc1cc(N)c(Cl)cc1C(=O)OCCN1CCC(CNC(=O)CC(C)C)CC1
Unit text: %
Activity: 20

Now look at this one.
Recorded Activity of COc1cc(N)c(Cl)cc1C(=O)OCCN1CCC(NC(=O)CCc2cccs2)CC1 , please. 10

====

Below: a set of entries, each annotated with reported Activity.
# Target: 5-hydroxytryptamine receptor 4 (Homo sapiens, UniProt Q13639)
# Sequence (Q13639 whole entry, canonical isoform): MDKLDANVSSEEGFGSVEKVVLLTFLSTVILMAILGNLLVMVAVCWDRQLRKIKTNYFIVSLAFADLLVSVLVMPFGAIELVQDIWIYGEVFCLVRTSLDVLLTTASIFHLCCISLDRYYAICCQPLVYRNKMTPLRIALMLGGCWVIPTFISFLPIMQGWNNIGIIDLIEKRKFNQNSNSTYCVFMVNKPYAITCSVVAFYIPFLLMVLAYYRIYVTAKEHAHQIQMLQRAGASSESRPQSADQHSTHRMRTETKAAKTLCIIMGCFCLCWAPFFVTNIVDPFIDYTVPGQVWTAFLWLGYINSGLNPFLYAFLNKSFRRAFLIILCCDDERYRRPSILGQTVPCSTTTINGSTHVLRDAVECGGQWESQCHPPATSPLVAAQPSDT
# Procedure text: Displacement of [3H]GR-113808 from human 5HT4 isoform E receptor expressed in rat C6 cells at 10 nM by liquid scintillation counting
# Assay type: cell-based
Hi! Could you send only the number? It should be in %, unit omitted.

Requested field: Activity. Item: CCCC(=O)NCC1CCN(CCOC(=O)c2cc(Cl)c(N)cc2OC)CC1 20

Then this compound: CCCC(=O)NC1CCN(CCOC(=O)c2cc(Cl)c(N)cc2OC)CC1 0

Then what about the compound COc1cc(N)c(Cl)cc1C(=O)OCCN1CCC(NC(=O)CCCc2ccccc2)CC1 ? 20

Can you check COc1cc(N)c(Cl)cc1C(=O)OCCN1CCC(CNC(=O)CCCNS(=O)(=O)c2ccc(-c3ccccc3)cc2)CC1 next? 10

From: ChEMBL document CHEMBL1153823
